- Protocol details: NCI Yeast Anticancer Drug Screen. Data for the cln2 rad14 strain (AID 165);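 further: 0% = growth equal to vehicle treated cultures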
- Condition details: S. cerevisiae cln2 rad14 strain, at 50.0 µM (retest, dose inferred, filed as 5.0), stronger effect = higher value
Compounds without any hit were thinned out: in the full panel of roughly 79,000, 15% have a hit.
Attribute: growth inhibition
State just the number; it will be interpreted in %.

Check out these entries, answers already filled in.
- COc1ccc([As]=[As]c2ccc(OC)cc2)cc1 (configuration not stated): 94
- O=C(CBr)Nc1ccc(Cl)cc1: 99
- COc1ccc(CN2CCCN(Cc3ccc(OC)cc3OC)C2c2ccc(N(CCCl)CCCl)cc2)c(OC)c1: 43
- COc1cc(C(=O)[O][Hg][CH2]C2CC(O)CC([CH2][Hg][O]C(=O)c3cc(OC)c(OC)c(OC)c3)O2)cc(OC)c1OC (configuration not stated): 96
- COc1ccc(Br)c(/C=C/[N+](=O)[O-])c1: 65
- COC1CCC(OC2CC(C3(C)CCC4(CC(O)C(C)C(C(C)/C=C(\C)C(=O)C(C)CC(C)C(=O)O)O4)O3)OC3(OC(C4OC(O)(CO)C(C)CC4C)CC3C)C2C)OC1C (configuration not stated): 92

Note: attention shifts to another entry.
Query growth inhibition for CC(C)C12C=C3CCC4C(C)(C(=O)O)CCCC4(C)C3(CC1)OO2 (configuration not stated) 94
